Literature roundup of Aurora kinase C (Homo sapiens, UniProt Q9UQB9) data, read-out IC50.
Label true when IC50 < 400 nM; otherwise false.

IC50 under 400 nM? Item: C[C@@H](O)[C@@H](C)Oc1nc(Nc2ccc(NC(=O)N=S(C)(C)=O)cc2)ncc1Br
false

IC50 under 400 nM? Item: C[C@@H](O)[C@@H](C)Nc1nc(Nc2ccc(Sc3nncn3C)cc2)ncc1Br
true

IC50 under 400 nM? Item: C[C@@H](O)[C@@H](C)Oc1nc(Nc2ccc(Nc3ncccn3)cc2)ncc1Br
true

IC50 under 400 nM? Item: CCS(=O)(=O)N=S(C)c1ccc(Nc2ncc(Br)c(N[C@H](C)C(C)(C)O)n2)cc1 (mixture of isomers)
true

IC50 under 400 nM? Item: Cc1cc(C#Cc2cnc(Nc3cccc(S(C)(=N)=O)c3)nc2N[C@H](C)CO)ccc1F (mixture of isomers)
false

IC50 under 400 nM? Item: Cc1ccc(S(=O)(=O)N=S(C)c2ccc(Nc3ncc(Br)c(N[C@H](C)C(C)(C)O)n3)cc2)cc1 (mixture of isomers)
true

IC50 under 400 nM? Item: CCNC(=O)N=S(C)(=O)c1ccc2cc1NCCCCNc1nc(ncc1Br)N2 (racemic)
true

IC50 under 400 nM? Item: C[C@@H](O)[C@@H](C)Oc1nc(Nc2ccc(Nc3nccc(NCCN(C)C)n3)cc2)ncc1Br
true

###

Literature roundup of Aurora kinase C (Homo sapiens, UniProt Q9UQB9) data, read-out pIC50.
Bear in mind: pIC50 is minus log10 of a mol/L concentration; give just that figure.

Tell me its pIC50 on Aurora kinase C (Homo sapiens, UniProt Q9UQB9): C[C@@H](O)[C@@H](C)Oc1nc(Nc2ccc(Nc3ncc(Cl)c(NCCO)n3)cc2)ncc1Br
6.74

Tell me its pIC50 on Aurora kinase C (Homo sapiens, UniProt Q9UQB9): C[C@@H](O)[C@@H](C)Nc1nc(Nc2ccc(Oc3cccnc3)cc2)ncc1Br
6.42

Tell me its pIC50 on Aurora kinase C (Homo sapiens, UniProt Q9UQB9): C[C@@H](O)[C@@H](C)Oc1nc(Nc2cccc(NC(=O)N=S(C)(C)=O)c2)ncc1Br
7.14

Tell me its pIC50 on Aurora kinase C (Homo sapiens, UniProt Q9UQB9): Cc1cnc(Nc2ccc(Nc3ncc(Br)c(O[C@H](C)[C@@H](C)O)n3)cc2)nc1NCCO
7.04

Tell me its pIC50 on Aurora kinase C (Homo sapiens, UniProt Q9UQB9): Cc1ccc(S(=O)(=O)N=S(C)c2ccc(Nc3ncc(Br)c(NC(C)C)n3)cc2)cc1 (racemic)
6.62

###

Literature roundup of Aurora kinase C (Homo sapiens, UniProt Q9UQB9) data, read-out pIC50.
Bear in mind: pIC50 is minus log10 of a mol/L concentration; give just that figure.

Find the measured pIC50 of Cc1ccc(S(=O)(=O)N=S(C)c2ccc(Nc3ncc(Br)c(N[C@H](C)CO)n3)cc2)cc1 (mixture of isomers) and report it.
6.44

Find the measured pIC50 of C[C@@H](Nc1nc(Nc2ccc(S(C)=NS(=O)(=O)C(F)(F)F)cc2)ncc1Br)C(C)(C)O (mixture of isomers) and report it.
6.00

Find the measured pIC50 of C[C@@H](O)[C@@H](C)Oc1nc(Nc2ccc(Nc3ncc(Br)cn3)cc2)ncc1Br and report it.
6.89

Find the measured pIC50 of C[C@@H](Nc1nc(Nc2ccc(S(C)=NS(=O)(=O)c3cnccc3Cl)cc2)ncc1Br)C(C)(C)O (mixture of isomers) and report it.
6.43

Find the measured pIC50 of C[Si](C)(C)CCS(=O)(=O)N=S(C)(=O)c1ccc2cc1NCCCCNc1nc(ncc1Br)N2 (racemic) and report it.
7.06

Find the measured pIC50 of C[C@@H](Nc1nc(Nc2ccc(S(C)=NS(=O)(=O)c3ccccc3)cc2)ncc1Br)C(C)(C)O (mixture of isomers) and report it.
6.24

Find the measured pIC50 of C[C@@H](O)[C@@H](C)Nc1nc(Nc2ccc(NC(=O)N=S(C)(C)=O)cc2)ncc1Br and report it.
6.55

Find the measured pIC50 of CCCOC(=O)N=S(C)(=O)c1ccc2cc1OCCCCNc1nc(ncc1Br)N2 (racemic) and report it.
6.55

Find the measured pIC50 of C[C@@H](O)[C@@H](C)Oc1nc(Nc2ccc(Nc3nccc(N(C)C)n3)cc2)ncc1Br and report it.
7.00

Find the measured pIC50 of Cc1ccc(Nc2ncc(Br)c(N[C@H](C)[C@@H](C)O)n2)cc1NC(=O)N=S(C)(C)=O and report it.
6.09

Find the measured pIC50 of C[C@@H](Nc1nc(Nc2ccc(S(C)=NS(C)(=O)=O)cc2)ncc1Br)C(C)(C)O (mixture of isomers) and report it.
6.40

Find the measured pIC50 of CSc1nc(Nc2ccc(Nc3ccccn3)cc2)ncc1Br and report it.
5.09

Find the measured pIC50 of Cc1ccc(S(=O)(=O)N=S(C)c2ccc(Nc3ncc(Br)c(NCCO)n3)cc2)cc1 (racemic) and report it.
6.17

Find the measured pIC50 of CC(=O)NCCNc1nc(Nc2ccc(S(C)=NS(=O)(=O)c3ccc(C)cc3)cc2)ncc1Br (racemic) and report it.
7.44

Find the measured pIC50 of CCCS(=O)(=O)N=S(C)c1ccc(Nc2ncc(Br)c(N[C@H](C)C(C)(C)O)n2)cc1 (mixture of isomers) and report it.
6.41

Find the measured pIC50 of Cc1c(NC(=O)N=S(C)(C)=O)cccc1Nc1ncc(Br)c(N[C@H](C)[C@@H](C)O)n1 and report it.
4.70

Find the measured pIC50 of CC(=O)Nc1nnc(S(=O)(=O)N=S(C)c2ccc(Nc3ncc(Br)c(N[C@H](C)C(C)(C)O)n3)cc2)s1 (mixture of isomers) and report it.
5.96

Find the measured pIC50 of C[C@@H](Nc1nc(Nc2ccc(C(=O)N=S(C)(C)=O)cc2)ncc1Br)C(C)(C)O and report it.
6.13

Find the measured pIC50 of C[C@@H](O)[C@@H](C)Oc1nc(Nc2cccc(Nc3nccc(OCCO)n3)c2)ncc1Br and report it.
6.36

Find the measured pIC50 of Brc1cnc(Nc2cccc(Nc3ncc(Br)c(NCCc4c[nH]cn4)n3)c2)nc1NCCc1c[nH]cn1 and report it.
6.92
